system: L540cy HL; assay: In vitro cytotoxicity, cell proliferation assay (CellTiter-Glo, 96 h); format: cell-based; conditions: auristatin free drug
Where a SMILES comes first, the peptide text is derived from it. [ ]: non-standard residue; d: D form. The star is where a group is joined. Dolaproine = CO[C@@H]([C@@H]1CCCN1)[C@@H](C)C(=O)O; Dil = CC[C@H](C)[C@H](NC)[C@@H](CC(=O)O)OC; X1 = C[C@@H](N*)[C@@H](O)c1ccccc1; Hyp = O=C(O)[C@@H]1C[C@@H](O)CN1; NMeT = CN[C@H](C(=O)O)[C@@H](C)O; Phe(ol) = N[C@H](CO)Cc1ccccc1; X4 = CN1C(=O)OC(C)(C)C1C(=O)*; X3 = CN1C(=O)OC[C@@H]1C(=O)*; NMeV = CN[C@H](C(=O)O)C(C)C; X5 = O=C1N[C@H](C(=O)*)CO1
# reported IC50; entries follow

Compound	Reading Unit	IC50
CC[C@H](C)[C@@H]([C@@H](CC(=O)N1CCC[C@H]1[C@H](OC)[C@@H](C)C(=O)N[C@H](CO)Cc1ccccc1)OC)N(C)C(=O)[C@@H](NC(=O)[C@@H](N)[C@@H](C)O)C(C)C [Example 25] (H-TV[Dil][Dolaproine][Phe(ol)])	nM	457
CC[C@H](C)[C@@H]([C@@H](CC(=O)N1CCC[C@H]1[C@H](OC)[C@@H](C)C(=O)N[C@H](CO)Cc1ccccc1)OC)N(C)C(=O)[C@@H](NC(=O)[C@@H]1COC(=O)N1)C(C)C [Example 40] (X5-V[Dil][Dolaproine][Phe(ol)])	nM	442
CC[C@H](C)[C@@H]([C@@H](CC(=O)N1CCC[C@H]1[C@H](OC)[C@@H](C)C(=O)N[C@H](C)[C@@H](O)c1ccccc1)OC)N(C)C(=O)[C@@H](NC(=O)[C@@H](NC)C(C)C)C(C)C [MMAE, monomethyl auristatin E, reference compound] (H-[NMeV]V[Dil][Dolaproine]-X1)	nM	0.1
CC[C@H](C)[C@@H]([C@@H](CC(=O)N1CCC[C@H]1[C@H](OC)[C@@H](C)C(=O)N[C@H](CO)Cc1ccccc1)OC)N(C)C(=O)[C@@H](NC(=O)C1N(C)C(=O)OC1(C)C)C(C)C (some centres unmarked) [Example 43] (X4-V[Dil][Dolaproine][Phe(ol)])	nM	19
CC[C@H](C)[C@@H]([C@@H](CC(=O)N1CCC[C@H]1[C@H](OC)[C@@H](C)C(=O)N[C@H](CO)Cc1ccccc1)OC)N(C)C(=O)[C@@H](NC(=O)[C@@H]1C[C@@H](O)CN1)C(C)C [Example 49] (H-[Hyp]V[Dil][Dolaproine][Phe(ol)])	nM	76
CC[C@H](C)[C@@H]([C@@H](CC(=O)N1CCC[C@H]1[C@H](OC)[C@@H](C)C(=O)N[C@H](CO)Cc1ccccc1)OC)N(C)C(=O)[C@@H](NC(=O)[C@H]1COC(=O)N1C)C(C)C [Example 45] (X3-V[Dil][Dolaproine][Phe(ol)])	nM	272
CC[C@H](C)[C@@H]([C@@H](CC(=O)N1CCC[C@H]1[C@H](OC)[C@@H](C)C(=O)NC(CCO)Cc1ccccc1)OC)N(C)C(=O)[C@@H](NC(=O)[C@H](CO)N(C)C)C(C)C (some centres unmarked) [Example 54]	nM	274
CC[C@H](C)[C@@H]([C@@H](CC(=O)N1CCC[C@H]1[C@H](OC)[C@@H](C)C(=O)N[C@H](CO)Cc1ccccc1)OC)N(C)C(=O)[C@@H](NC(=O)[C@@H](NC)[C@@H](C)O)C(C)C [Example 13] (H-[NMeT]V[Dil][Dolaproine][Phe(ol)])	nM	5
